Reference source for all entries: paper PMC7316143

Listed compounds paired with reported EC50
Target: UniProtKB P31652
Sequence (P31652 whole entry): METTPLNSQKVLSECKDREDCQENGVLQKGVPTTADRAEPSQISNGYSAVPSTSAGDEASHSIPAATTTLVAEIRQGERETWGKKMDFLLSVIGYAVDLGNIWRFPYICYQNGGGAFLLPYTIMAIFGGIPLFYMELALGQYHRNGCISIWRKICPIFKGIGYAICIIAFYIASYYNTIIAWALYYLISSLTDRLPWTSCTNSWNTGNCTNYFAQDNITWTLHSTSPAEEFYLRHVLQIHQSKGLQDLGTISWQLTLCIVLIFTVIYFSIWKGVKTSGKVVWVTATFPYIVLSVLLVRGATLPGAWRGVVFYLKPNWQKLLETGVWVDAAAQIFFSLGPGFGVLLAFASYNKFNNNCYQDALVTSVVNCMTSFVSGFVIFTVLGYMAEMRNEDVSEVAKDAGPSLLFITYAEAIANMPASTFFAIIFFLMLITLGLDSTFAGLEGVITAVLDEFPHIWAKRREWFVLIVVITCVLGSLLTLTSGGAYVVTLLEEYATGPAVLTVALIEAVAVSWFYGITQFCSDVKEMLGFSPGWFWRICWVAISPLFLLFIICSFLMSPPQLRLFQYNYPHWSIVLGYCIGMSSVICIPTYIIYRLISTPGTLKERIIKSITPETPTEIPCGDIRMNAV
Assay: [3H]5-HT release at SERT in rat brain synaptosomes
experimental_readout: EC50 (nM)

> print(dat)
                                   compound  units.symbol  lt.gt.eq  numeric.value
1  Cc1ccccc1C1OCCNC1C (stereo not shown) [2-MPM, 3-Methyl-2-(2-methylphenyl)morpholine]            nM         =           1760
2  Cc1ccc(C2OCCNC2C)cc1 (stereo not shown) [4-MPM, 3-Methyl-2-(4-methylphenyl)morpholine]            nM         =             86
3  CC1NCCOC1c1ccccc1 (stereo not shown) [Phenmetrazine, 3-methyl-2-phenylmorpholine, reference compound]            nM         >          10000
4  Cc1cccc(C2OCCNC2C)c1 (stereo not shown) [3-MPM, 3-Methyl-2-(3-methylphenyl)morpholine]            nM         =           5380
